Values compiled from PubChem BioAssay (NCI).

- Tested on: BT-549 breast
- experiment_notes: NCI-60 one-dose screen, 48 h
- condition: 10 µM unless noted
Compounds without any hit were thinned out: in the full panel of roughly 83,000, 20% have a hit. Activity calls are given as the source filed them. Rule for the calls: active = growth percent below 10; inactive = the rest.
Outcome codes: active, inactive

compound	answer_label
Cn1ccnc1CN1CCSC(C(=O)Nc2ccccc2)C1 (centres undefined)	inactive
CCc1c2c(nc3ccc(OCc4ccc(B5OC(C)(C)C(C)(C)O5)cc4)cc13)-c1cc3c(c(=O)n1C2)COC(=O)[C@]3(O)CC	inactive
COc1ccc(-c2nnc3n(C)c(=O)c4ccccc4n23)cc1O	inactive
CCCCCCCCn1ccc2cc(NC(=O)CN3CCN(c4nc(C)cc(N5CCCCC5)n4)CC3)ccc21	inactive
O=C1OCC2=C1C(c1cccc(C(F)(F)F)c1)c1cc3c(cc1N2CCO)CCC3 (centres undefined)	inactive
O=c1cc(N/N=C/c2ccc(F)cc2)c2cc(Cl)ccc2[nH]1	inactive
O=C1c2cc3c(cc2-c2c1c1ccc(Cl)cc1c(=O)n2CCCn1ccnc1)OCO3	active
CCN(c1cc(-c2ccc(CN3CCC(/C=C/S(=O)(=O)c4ccccc4)CC3)cc2)cc(C(=O)NCc2c(C)cc(C)[nH]c2=O)c1C)C1CCOCC1	inactive
COc1nc2ccc(C)cc2cc1/C=[N+](\[O-])c1ccccc1	inactive
